Assay: Stability on storage (related substances and decomposition products)
Type: physicochemical
Settings: t = 0; unit assumed
MEASURE: Related Substances (from process) P.A. C (%)
Numbers only, in %.

Task: Query: Related Substances (from process) P.A. C; subject: C/C(=C\C(=O)OCCCCCCCCC(=O)[O-])C[C@@H]1OC[C@H](C[C@@H]2O[C@H]2[C@@H](C)[C@H](C)O)[C@@H](O)[C@H]1O.C/C(=C\C(=O)OCCCCCCCCC(=O)[O-])C[C@@H]1OC[C@H](C[C@@H]2O[C@H]2[C@@H](C)[C@H](C)O)[C@@H](O)[C@H]1O.[Ca+2] [amorphous calcium pseudomonate, calcium pseudomonate]
Result: 0.09
